Tested on: HEK-293T
ASSAY METHOD TEXT: Multiplex assay against HEK293T
Assay type: toxicity, cell-based
EXPERIMENTAL CONTEXT: human, 12 h, 1 µM, compound concentration 1 uM, replicate 1
REPORTED METRIC: Population Healthy Nuclei (%)
Number first, unit second: that is the form wanted.

Worked examples follow.
> print(dat)
                                chem.smiles  test.value
1  CCOc1ccn(-c2ccc(F)cc2)c(=O)c1C(=O)Nc1ccc(Oc2ccnc(N)c2Cl)c(F)c1         67%
2  CC(/C=C1\SC(=S)N(CCCC(=O)Nc2ccc(C(=O)O)c(O)c2)C1=O)=C\c1ccccc1         34%
3  CC(C)c1cc(Nc2nc(N3CCC[C@H](N)C3)ncc2C(N)=O)cc(C(C)C)n1         30%
4  CC[C@@H]1C(=O)N(C)c2cnc(Nc3ccc(C(=O)NC4CCN(C)CC4)cc3OC)nc2N1C1CCCC1         61%

Observed Population Healthy Nuclei (%) on HEK-293T for `N#Cc1cccc(C(=O)Nc2cc(-c3ccccc3)nn2-c2ccccc2)c1` , please. 41%

Observed Population Healthy Nuclei (%) on HEK-293T for `NC(=O)c1ccc2nc(-c3ccc(C4(N)CCC4)cc3)c(-c3ccccc3)n2n1` , please. 67%

Origin of measurements: ChEMBL document CHEMBL4689842
